I'd appreciate it if you could supply IC50 values for the items below.
- Test system: 280 human cancer cell lines
- assay.info: OncoPanel cell proliferation assay (10-day)
- Format: cell-based
- stated.conditions: Homo sapiens, Raji, Lymphoma; read-out: Cell Count IC50
# value in µM; strip the unit string

Field request: IC50 | item: CC(C)=CCC[C@@H]1C(O)Oc2c(C)cc(O)c3c2[C@H]1CC[C@H]3C (stereo partly drawn) [Compound 2, 5,18-epoxyserrulat-14-en-8,18-diol] 8.04

Field request: IC50 | item: CC(C)=CCC[C@H](CO)[C@@H]1CC[C@@H](C)c2c1cc(C)c(O)c2O [Compound 1, 7,8,18-trihydroxyserrulat-14-ene] 4.6

Field request: IC50 | item: CC(C)=CCC[C@H](C)[C@@H]1CC[C@@H](C)c2c1cc(C)c(O)c2O [Compound 4, 7,8-dihydroxyserrulat-14-ene] 3.92

* * *

- experimental.system: KAT2A (GCN5L2) (h) bromodomain (Homo sapiens, UniProt Q92830)
- Construct: Bromodomain
- Sequence (Q92830 728-832 limits assumed): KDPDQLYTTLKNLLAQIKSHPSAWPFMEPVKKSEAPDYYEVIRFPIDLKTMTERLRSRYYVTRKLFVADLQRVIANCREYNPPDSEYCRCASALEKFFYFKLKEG
- assay.info: Epigenetic binding assay, Bromodomain
- stated.conditions: Table 9, inhibition/concentration-response curve; read-out: IC50
endpoint: pIC50
// pIC50 is dimensionless: -log10 of concentration (M)

Field request: pIC50 | item: CC(C)=CCC[C@H](CO)[C@@H]1CC[C@@H](C)c2c1cc(C)c(O)c2O [Compound 1, 7,8,18-trihydroxyserrulat-14-ene] 5.41

Field request: pIC50 | item: CCCOc1ccn2c(C(C)=O)cc(-c3ccccc3S(C)(=O)=O)c2c1 [GSK2801, reference compound] 5.00

* * *

I'd appreciate it if you could supply % Cell growth values for the items below.
- Test system: 43 cancer cell lines and one normal cell line
- assay.info: In vitro cell viability assay (intracellular ATP, 72 hour)
- Format: cell-based
- stated.conditions: DLD-1 (Colon Cancer); 10 μM
# value in %; strip the unit string

Field request: % Cell growth | item: CC(C)=CCC[C@H](C)[C@@H]1CC[C@@H](C)c2c1cc(C)c(O)c2O [Compound 4, 7,8-dihydroxyserrulat-14-ene] 68

Field request: % Cell growth | item: CC(C)=CCC[C@@H]1COc2c(C)cc(O)c3c2[C@H]1CC[C@H]3C [Compound 3, 5,18-epoxy-8-hydroxyserrulat-14-ene] 101

Field request: % Cell growth | item: CC(C)=CCC[C@@H]1C(O)Oc2c(C)cc(O)c3c2[C@H]1CC[C@H]3C (stereo partly shown) 95

Field request: % Cell growth | item: CC(C)=CCC[C@H](CO)[C@@H]1CC[C@@H](C)c2c1cc(C)c(O)c2O [Compound 1, 7,8,18-trihydroxyserrulat-14-ene] −65

* * *

- Test system: 280 human cancer cell lines
- assay.info: OncoPanel cell proliferation assay (10-day)
- Format: cell-based
- stated.conditions: Homo sapiens, CA46, CA46, Lymphoma; read-out: Cell Count IC50
I'd appreciate it if you could supply pIC50 values for the items below.
// pIC50 is dimensionless: -log10 of concentration (M)

Field request: pIC50 | item: CC(C)=CCC[C@@H]1C(O)Oc2c(C)cc(O)c3c2[C@H]1CC[C@H]3C (stereo partly drawn) 5.42

Field request: pIC50 | item: CC(C)=CCC[C@H](CO)[C@@H]1CC[C@@H](C)c2c1cc(C)c(O)c2O [Compound 1, 7,8,18-trihydroxyserrulat-14-ene] 5.64

Field request: pIC50 | item: CC(C)=CCC[C@H](C)[C@@H]1CC[C@@H](C)c2c1cc(C)c(O)c2O [Compound 4, 7,8-dihydroxyserrulat-14-ene] 5.39
